- ASSAY SYSTEM: human AMPK (full-length γ1, β1 and α1 subunits) (Homo sapiens (Human), UniProt Q13131+Q9Y478)
- Sequence (Q13131 whole entry): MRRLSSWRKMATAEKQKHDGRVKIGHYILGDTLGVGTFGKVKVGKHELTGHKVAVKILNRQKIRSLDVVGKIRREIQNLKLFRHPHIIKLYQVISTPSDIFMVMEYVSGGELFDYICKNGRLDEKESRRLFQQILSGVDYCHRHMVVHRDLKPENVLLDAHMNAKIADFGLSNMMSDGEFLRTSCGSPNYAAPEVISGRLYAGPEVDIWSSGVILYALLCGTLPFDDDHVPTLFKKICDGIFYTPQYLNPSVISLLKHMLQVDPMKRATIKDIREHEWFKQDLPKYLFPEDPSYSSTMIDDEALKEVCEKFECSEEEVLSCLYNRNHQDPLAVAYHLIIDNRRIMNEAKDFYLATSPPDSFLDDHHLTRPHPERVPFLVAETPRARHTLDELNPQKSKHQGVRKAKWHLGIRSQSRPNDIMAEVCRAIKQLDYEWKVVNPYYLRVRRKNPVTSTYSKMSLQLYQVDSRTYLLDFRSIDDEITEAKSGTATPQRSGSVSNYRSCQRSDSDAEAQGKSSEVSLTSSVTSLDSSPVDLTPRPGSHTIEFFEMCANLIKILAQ
- Sequence (Q9Y478 whole entry): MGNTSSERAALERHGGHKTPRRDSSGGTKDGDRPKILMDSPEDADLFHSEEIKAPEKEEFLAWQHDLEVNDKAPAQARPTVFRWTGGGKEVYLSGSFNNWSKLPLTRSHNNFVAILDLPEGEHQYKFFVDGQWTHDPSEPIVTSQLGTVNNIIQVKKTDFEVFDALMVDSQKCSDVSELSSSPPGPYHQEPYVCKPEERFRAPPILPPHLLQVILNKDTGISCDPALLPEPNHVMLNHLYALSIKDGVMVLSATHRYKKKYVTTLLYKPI
- Sequence (P54619 whole entry partner): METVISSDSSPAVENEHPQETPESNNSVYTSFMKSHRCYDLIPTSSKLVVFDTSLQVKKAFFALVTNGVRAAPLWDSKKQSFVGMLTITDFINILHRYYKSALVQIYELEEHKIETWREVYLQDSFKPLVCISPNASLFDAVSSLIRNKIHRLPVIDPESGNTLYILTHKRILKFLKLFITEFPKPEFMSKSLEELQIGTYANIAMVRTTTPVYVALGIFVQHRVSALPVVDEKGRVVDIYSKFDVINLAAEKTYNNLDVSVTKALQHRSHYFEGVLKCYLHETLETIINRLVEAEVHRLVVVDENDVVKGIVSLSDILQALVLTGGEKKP
- EXPERIMENT SUMMARY: AMPK in vitro biochemical assay (33P-based, SAMS peptide, PP2A dephosphorylation)
- CONDITION CONTEXT: counts as % of positive control wells (enzyme, allosteric activator or AMP, PP2A and substrate); read-out: Maximum
Label Fulfilled when Emax is at or above 80%; anything below gets Not fulfilled.

MOLECULE	CATEGORY LABEL
CCOc1ccc(-c2cc3c(C(=O)O)c[nH]c3cc2Cl)cc1 [Example 31]	Fulfilled
O=C(O)c1c[nH]c2cc(Cl)c(-c3ccc4c(c3)OC[C@H](CO)O4)cc12 [Example 144]	Fulfilled
COc1nc(N2CCC(OC)C2)ccc1-c1cc2c(C(=O)O)c[nH]c2cc1Cl (stereo in doubt) [Example 176]	Not fulfilled
CCOc1ccc(-c2cc3c(C(=O)O)n[nH]c3cc2Cl)cc1 [Example 99]	Fulfilled
O=C(O)c1c[nH]c2cc(Br)c(-c3ccc(-c4ccccc4O)cc3)cc12 [Example 68]	Fulfilled

Is reported Emax greater than or equal to 80% here: CN1CCN(CCCOc2ccc(-c3cc4c(C(=O)O)c[nH]c4cc3Cl)cc2)CC1=O [Example 188]
Fulfilled
